# measured on: T1, human FAPα-His tag (Sino biological) (human, UniProt Q12884 26-760)
# T1 construct: Bought protein; also called human FAPα-His protein; not shown: His tag
# T1 sequence (looked up): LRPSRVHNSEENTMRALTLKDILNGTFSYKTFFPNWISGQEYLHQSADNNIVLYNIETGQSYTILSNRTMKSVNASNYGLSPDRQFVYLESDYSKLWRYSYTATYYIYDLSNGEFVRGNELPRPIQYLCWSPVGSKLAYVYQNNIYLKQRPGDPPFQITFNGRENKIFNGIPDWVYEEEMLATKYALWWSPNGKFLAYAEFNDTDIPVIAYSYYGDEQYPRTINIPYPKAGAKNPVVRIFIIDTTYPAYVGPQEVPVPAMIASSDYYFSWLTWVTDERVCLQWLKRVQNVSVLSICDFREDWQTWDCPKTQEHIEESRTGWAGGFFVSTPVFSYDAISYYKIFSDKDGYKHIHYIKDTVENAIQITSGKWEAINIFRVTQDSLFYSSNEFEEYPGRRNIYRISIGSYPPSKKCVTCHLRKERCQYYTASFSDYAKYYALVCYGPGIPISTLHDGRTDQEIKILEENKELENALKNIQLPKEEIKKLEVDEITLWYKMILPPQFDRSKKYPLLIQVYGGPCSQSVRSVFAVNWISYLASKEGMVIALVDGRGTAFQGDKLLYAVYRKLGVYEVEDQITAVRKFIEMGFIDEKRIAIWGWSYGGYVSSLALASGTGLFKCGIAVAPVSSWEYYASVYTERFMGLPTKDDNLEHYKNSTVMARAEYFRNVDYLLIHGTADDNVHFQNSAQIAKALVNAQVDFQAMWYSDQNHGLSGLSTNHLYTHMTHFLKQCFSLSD
# assay procedure: competitive ELISA on coated human FAPα; competitor (detected): FAP-I37-Bio
parameter: OD 450 nm (OD 450 nm)
A number alone suffices; assume OD 450 nm.

// recorded OD 450 nm for I38 (antibody, V domains shown, Tested as a mAb; also called FAP-I38) VH: EVQLVQSGAEVKEPGVSVKVSCKASGYTFASYGLSWVRLAPGQGLQWMGWISPYTPNPIYAPNFRDKVILTTDRSTNTAYLEVRSLRSDDTGLYYCARNHWVGRPTRAFDLWGQGTMVTVSA VL: EIVLTQSPGTLSLSPGERATLSCRASQTVSITHLAWYQQKPGQAPRLLTYGASARATGIPDRFSVSGSGTDFTLTITRLEPEDFAVYYCQHYGSSITFGGGTKVEIK : 0.282
